tested on: Staphylococcus aureus; test: Antibacterial activity against Staphylococcus aureus ATCC 6538P after 24 to 48 hrs; assay type: functional
PROPERTY NAME: MIC (µg/mL)
Your answer is read as µg/mL, so omit the unit and give the number.

# input molecule: CCOC(=O)C1(C)C(C)NC(=O)N(C)C1c1ccc(OC)cc1 (centres undefined) ; wanted: its MIC 68

Entry under review: CCOC(=O)C1(C)C(C)NC(=O)N(C)C1c1ccc(Cl)cc1 (centres undefined) . Reported MIC? 68

If you can, please state the reported MIC value of CCOC(=O)C1(C)C(C)NC(=O)N(C)C1c1ccc(O)cc1 (centres undefined) . 68

Endpoint output: MIC of CCOC(=O)C1(C)C(C)NC(=S)N(C)C1c1ccc(OC)cc1 (centres undefined) . Value? 32

For CCOC(=O)C1(C)C(C)NC(=O)N(C)C1c1ccc(N(C)C)cc1 (centres undefined) , what is its reported MIC? 32

# query: MIC of entry CCOC(=O)C1(C)C(C)NC(=S)N(C)C1c1ccc(O)cc1 (centres undefined) 32

Look at this molecule and give its reported MIC. `CN[C@@H]1[C@H](O[C@H]2[C@H](O[C@H]3[C@H](O)[C@@H](O)[C@H](N=C(N)N)[C@@H](O)[C@@H]3N=C(N)N)O[C@@H](C)[C@]2(O)C=O)O[C@@H](CO)[C@H](O)[C@H]1O` 32

Quick check: MIC of CCOC(=O)C1(C)C(C)NC(=S)N(C)C1c1ccccc1 (centres undefined) ? 68

Could you tell me which MIC is on file for CCOC(=O)C1(C)C(C)NC(=O)N(C)C1c1ccccc1[N+](=O)[O-] (centres undefined) ? 8

These data points were gathered from ChEMBL document CHEMBL3632620.
